- measurement target: T1, PUF4 RNA-binding domain (Saccharomyces cerevisiae, UniProt P25339 537-888)
- T1 sequence: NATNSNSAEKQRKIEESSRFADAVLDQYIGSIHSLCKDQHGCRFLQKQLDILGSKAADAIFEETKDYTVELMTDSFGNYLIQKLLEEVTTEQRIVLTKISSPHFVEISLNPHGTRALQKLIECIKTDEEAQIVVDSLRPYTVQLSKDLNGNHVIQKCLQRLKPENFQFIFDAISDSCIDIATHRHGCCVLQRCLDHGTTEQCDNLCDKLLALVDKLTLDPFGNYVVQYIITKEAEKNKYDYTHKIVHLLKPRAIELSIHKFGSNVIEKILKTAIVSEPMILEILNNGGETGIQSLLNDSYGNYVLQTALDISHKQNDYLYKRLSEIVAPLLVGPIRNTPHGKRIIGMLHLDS
- experiment summary: Mg; RNA-MaP; 20 mM Na-HEPES pH 7.4, 30 mM KOAc, 0.75 mM MgCl2, 0.1% Tween-20, 5% glycerol, 0.1 mg/mL BSA, 2 mM DTT; 25 C; 0.0125-409.6 nM protein
- cond: tags: N-His6-TEV cleaved; C-SNAP kept, Cy3B-labelled; label: tethered on chip by stalled RNA polymerase
pKd: −log10 of the molar value.

binder	pKd
UCUCUUUGUAAACAACUCUCUU (ssRNA) [Ic_S1_P5E.1_K5.1_C5.1_H5.1_A5.1_[T5A]_[T6A]_[A7C]_F5.1_[T8A]_[T9A]_[A10C]_T5.1]	7.05
Ib_S4_P4E.1_K4.1_C4.1_H4.1_A4.1_[A6G]_F4.1_[T8C]_T4.1 (ssRNA) RNA: UUUGACAACUGAUCGUUCUUUCUUGUAUGUCAUUCUUUCUCGAUCAGUUGUCUUU	6.87
Ic_S4_P5E.1_K5.1_C5.1_H5.1_A5.1_[T5C]_[T6A]_[A7C]_F5.1_[T8A]_[A10G]_T5.1 (ssRNA) RNA: UUUGACAACUGAUCGUUCUUUCUUGUACACAUGUUCUUUCUCGAUCAGUUGUCUUU	6.89
